target: PKM2(C49S) (Mus musculus, UniProt P52480, C49S); construct: recombinant mouse PKM2 C49S (pET-28a, E. coli); assay: ITC (much weaker than wild type)
Sequence (P52480 whole entry C49S): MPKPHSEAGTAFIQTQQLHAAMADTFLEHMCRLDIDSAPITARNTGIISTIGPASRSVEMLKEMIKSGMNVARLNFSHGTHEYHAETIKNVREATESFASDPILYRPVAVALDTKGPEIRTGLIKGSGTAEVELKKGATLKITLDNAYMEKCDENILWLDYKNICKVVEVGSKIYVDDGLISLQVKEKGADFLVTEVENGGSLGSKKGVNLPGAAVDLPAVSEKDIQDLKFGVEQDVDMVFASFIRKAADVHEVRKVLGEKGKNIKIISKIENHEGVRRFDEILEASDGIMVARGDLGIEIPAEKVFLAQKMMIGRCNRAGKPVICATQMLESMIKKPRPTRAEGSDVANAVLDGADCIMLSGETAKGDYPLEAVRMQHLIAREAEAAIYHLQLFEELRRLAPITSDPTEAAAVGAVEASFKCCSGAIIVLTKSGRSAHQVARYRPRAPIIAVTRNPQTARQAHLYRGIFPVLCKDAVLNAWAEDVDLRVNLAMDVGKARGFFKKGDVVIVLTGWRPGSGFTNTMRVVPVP
attribute_measured: Kd (µM)
Please reply with the bare figure in µM and do not write the unit itself.

Request: GET /values?readout=Kd&item= CCCCCC(=O)/C=C/[C@@H]1[C@@H](C/C=C\CCCC(=O)O)[C@@H](O)C[C@H]1O
Response: 37.6

* * *

molecular target: pyruvate kinase M2 (PKM2) (Mus musculus); construct: recombinant mouse PKM2 (pET-28a, E. coli); assay: ITC; LC/MS/MS peptide mapping of the adduct; CETSA and DARTS in lysates
Sequence (P52480 whole entry): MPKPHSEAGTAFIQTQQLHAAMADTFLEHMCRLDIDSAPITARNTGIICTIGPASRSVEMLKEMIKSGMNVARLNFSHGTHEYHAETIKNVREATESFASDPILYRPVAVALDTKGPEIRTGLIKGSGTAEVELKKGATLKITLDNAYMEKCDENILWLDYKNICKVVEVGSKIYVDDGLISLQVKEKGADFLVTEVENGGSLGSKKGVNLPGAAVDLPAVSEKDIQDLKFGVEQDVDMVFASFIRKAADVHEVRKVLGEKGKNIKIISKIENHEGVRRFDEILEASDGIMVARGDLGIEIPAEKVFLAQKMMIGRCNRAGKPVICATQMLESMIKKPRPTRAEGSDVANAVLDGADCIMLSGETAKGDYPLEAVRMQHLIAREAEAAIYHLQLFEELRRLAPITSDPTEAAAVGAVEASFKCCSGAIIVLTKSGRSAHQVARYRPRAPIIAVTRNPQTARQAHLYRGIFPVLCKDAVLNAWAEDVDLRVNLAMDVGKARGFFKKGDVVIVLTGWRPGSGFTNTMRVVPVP
attribute_measured: Kd (µM)
Write the answer as a number in µM, unit excluded.

Request: Bench note: what Kd did CCCCCC(=O)/C=C/[C@@H]1[C@@H](C/C=C\CCCC(=O)O)[C@@H](O)C[C@H]1O show?
Response: 0.918

Value source: paper PMC12781075
